// provenance: patent US8993562B2

Tested on: male CD1 mice
Assay: In vivo predictive sedation-hypnosis test (traveled distance)
Conditions: Mus musculus, ip, 0.5 h, 98.0 μmol/kg intraperitoneal, traveled distance over 30 min versus control, read-out: % inhib motor activity
Outcome Measure: inhibition in vivo at 98 µmol/kg (%)
Please respond with the number in % and leave the unit unwritten.

Some solved cases for reference:
CCOc1ccc2nc(-c3ccc(Br)cc3)c(CC(=O)N3CCCCC3)n2n1 [Example 10]; 93.5
CCCN(CCC)C(=O)Cc1c(-c2ccc(F)cc2)nc2ccc(OCC)nn12 [Example 43]; 95.7
Cc1ccc(-c2nc3ccc(C)nn3c2CC(=O)NN2CCOCC2)cc1 [Example 105]; 94

query: # value lookup — system male CD1 mice, readout inhibition in vivo at 98 µmol/kg, item CCCN(CCC)C(=O)Cc1c(-c2ccc(C)cc2)nc2ccc(Cl)nn12 [Example 2]
result: 96.7

query: Hi! What's the reported inhibition in vivo at 98 µmol/kg for COc1ccc(-c2nc3ccc(OC)nn3c2CC(=O)N2CCCCC2)cc1 [Example 78] on male CD1 mice?
result: 91.1
